Entries and their fold change (FC)
- Tested on: RAW264.7
- assay procedure: Modulation of M2 polarization in mouse RAW264.7 cells assessed as change in Arg1 mRNA expression at 300 nM measured after 24 hrs by qRT-PCR analysis relative to control
- Type: functional
API note: the answer field is a bare number with no unit suffix.

Some molecules with known fold change (FC) results, for comparison:
molecule: Cl.Cn1nccc1C(=O)N[C@@H]1CNCC[C@H]1c1cccc(F)c1
fold change (FC): 1.62

molecule: O=C(NCC(c1ccccc1F)N1CCCC1)c1ccc(-c2cc[nH]n2)cc1 (stereo not drawn)
fold change (FC): 1.09

Alright, here's another molecule for you.
Problem: Give the reported value of fold change (FC) for this record: Cl.Cn1ncc(Cl)c1-c1ccc(C(=O)N[C@@H]2CNCC[C@H]2c2cccc(F)c2)cc1
Result: 13.97
